This section presents binders with their documented ELISA (Avg) values.
target: T1, SARS-CoV-2 Spike Glycoprotein S1 (subunit 1) (SARS-CoV-2, UniProt P0DTC2 16-685); assay: screening phage ELISA, mean
T1 construct: also called S1 Monomer; SARS-CoV-2 S1
Please state the value as a number alone, without comment.

1-52 (antibody, V domains shown) VH: EVQLLESGGGLVQPGGSLRLSCAASGFTFSNYAMSWVRQAPGKGLEWVSAISGSAGSTYYADSVKGRFTISRDNSKNTLYLQMNSLRAEDTAVYYCARVRQGLRRTWYYFDYWGQGTLVTVSS VL: QSALTQPASVSGSPGQSITISCTGTSSDVGSSNLVSWYQQHPGKAPKLMIYEGSKRPSGVSNRFSGSKSGNTASLTISGLQAEDEADYYCCSYAGSLYVFGGGTKLTVL    3.5

In: So what does the record say about ELISA (Avg) for 1-22 (antibody, V domains shown) VH: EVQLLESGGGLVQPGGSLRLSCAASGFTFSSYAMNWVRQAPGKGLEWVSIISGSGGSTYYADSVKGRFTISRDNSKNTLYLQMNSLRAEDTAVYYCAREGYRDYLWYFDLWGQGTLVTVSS VL: QSALTQPASVSGSPGQSITISCTGTSTDVGSYNLVSWYQQHPGKAPKLMIYEGSQRPSGVSNRFSGSKSGNTASLTISGLQAEDEADYYCCSYAGSSTVFGGGTKLTVL ?
Out: 40.6

In: Can you look up the measured ELISA (Avg) of 1-26 (antibody, V domains shown) VH: EVQLLESGGGLVQPGGSLRLSCAASGFTFSSYAISWVRQAPGKGLEWVSAISGSGYSTYYADSVKGRFTISRDNSKNTLYLQMNSLRAEDTAVYYCARGAPDSSGYYFQGEVYFDYWGQGTLVTVSS VL: QSALTQPASVSGSPGQSITISCTGTSSDVGGYNLVSWYQQHPGKAPKLMIYEGTKRPSGVSNRFSGSKSGNTASLTISGLQAEDEADYYCCSFVRSSAHVVFGGGTKLTVL for me?
Out: 19.5
